system: human PPAR γ 2 (Homo sapiens, UniProt P37231)
Sequence (P37231 whole entry): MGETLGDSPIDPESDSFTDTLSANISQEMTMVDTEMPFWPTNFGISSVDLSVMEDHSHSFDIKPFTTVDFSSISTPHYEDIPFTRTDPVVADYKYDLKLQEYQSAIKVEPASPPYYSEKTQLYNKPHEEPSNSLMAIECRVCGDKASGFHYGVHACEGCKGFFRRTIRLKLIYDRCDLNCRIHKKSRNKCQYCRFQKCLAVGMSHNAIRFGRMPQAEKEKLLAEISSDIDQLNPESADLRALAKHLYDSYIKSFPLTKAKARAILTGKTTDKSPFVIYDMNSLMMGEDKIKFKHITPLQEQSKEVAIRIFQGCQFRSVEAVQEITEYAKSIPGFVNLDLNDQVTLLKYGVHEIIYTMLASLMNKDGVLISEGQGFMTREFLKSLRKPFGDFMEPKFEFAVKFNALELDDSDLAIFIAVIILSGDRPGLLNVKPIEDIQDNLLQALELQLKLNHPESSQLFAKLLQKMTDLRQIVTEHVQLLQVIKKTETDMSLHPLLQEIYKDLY
method_notes: Inhibitory activity against PPAR γ transcription in the presence of agonist compound A, luciferase reporter
condition_notes: in the presence of 10 nM compound A (agonist); MG63 cells transfected with pSG5-hPPARg and pGV-P2-PPRE; 24 hr
Description: The primers of the polymerase chain reaction (hereinafter “PCR”) were designed according to the gene sequence of human PPAR γ 2 (GenBANK accession No. D83233). […] For this, 2 kinds of polynucleotides shown in the sequence numbers 1 and 2 in the sequence table described below (hereinafter “S1” and “AS1”, respectively) were used as PCR primers. […]
pIC50: −log10 of the molar value.
observation_type: pIC50

compound	recorded_measurement
Cc1nnc(NS(=O)(=O)c2ccc(NC(=O)c3cc([N+](=O)[O-])ccc3Cl)cc2)s1 [Example 101]	7.21
CC(O)c1cccc(NC(=O)c2cc([N+](=O)[O-])ccc2Cl)c1 (centres unmarked) [Example 239]	7.28
O=C(Nc1nc(-c2cccnc2)cs1)c1cc([N+](=O)[O-])ccc1Cl [Example 37]	7.82
O=C(Nc1ccc(CCNC(=S)Nc2ccccc2)cc1)c1cc([N+](=O)[O-])ccc1Cl [Example 269]	7.52

1: CC(=O)c1cccc(NC(=O)c2cc([N+](=O)[O-])ccc2Cl)c1 [Example 156]
2: CC(C)(C)OC(=O)Nc1ccc(-c2ccc(NC(=O)c3cc([N+](=O)[O-])ccc3Cl)cc2)cc1 [Example 87]
Hello, I am sorting some records. Could you say if 1 or 2 has the smaller pIC50 value? Indicate your choice by writing its label.
1
(1: 7.00, 2: 7.48)

A: CCCN(CCC)c1ccc(-c2ccc(NC(=O)c3cc([N+](=O)[O-])ccc3Cl)cc2)cc1 [Example 194]
B: O=C(Nc1ccc(-c2ccccn2)cc1)c1cc([N+](=O)[O-])ccc1Cl [Example 8]
Out of A and B , name the one with the higher pIC50. Indicate your choice by writing its label.
B
(B: 8.23, A: 6.48)
